# Test: Cytotoxic activity in African green monkey Vero cells by sulforhodamine B assay
# Type: cell-based
# Stated conditions: chlorocebus sabaeus
Readout name: CC50

Answered examples (2):
Compound	Assay value
C=C(C)[C@@H]1CC[C@]2(C(=O)O)CC[C@]3(C)[C@H](CC[C@@H]4[C@@]5(C)CC[C@H](O)C(C)(C)[C@@H]5CC[C@]43C)[C@@H]12 [BETULINIC ACID]	38.1 µM
C=C(C)[C@@H]1CC[C@]2(CO)CC[C@]3(C)[C@H](CC[C@@H]4[C@@]5(C)CC[C@H](O)C(C)(C)[C@@H]5CC[C@]43C)[C@@H]12 [BETULIN]	> 500 µM

Next up:
Query: Entry C=C(C)[C@@H]1CC[C@]2(C(=O)O)CC[C@]3(C)[C@H](CC[C@@H]4[C@@]5(C)CC[C@H]6OC(C)(C)OC[C@]6(C)[C@@H]5CC[C@]43C)[C@@H]12 : reported CC50 = ?
Response: > 500 µM

====

# Test: Cytotoxic activity in HEK293 cells by sulforhodamine B assay
# Type: cell-based
# Stated conditions: human
Readout name: CC50

Answered examples (4):
Molecule	CC50
C=C(C)[C@@H]1CC[C@]2(C(=O)O)CC[C@]3(C)[C@H](CC[C@@H]4[C@@]5(C)CCC(=O)C(C)(C)[C@@H]5CC[C@]43C)[C@@H]12	> 500 µM
C=C(C)[C@@H]1CC[C@]2(C(=O)O)CC[C@]3(C)[C@H](CC[C@@H]4[C@@]5(C)CC[C@H](O)C(C)(C)[C@@H]5CC[C@]43C)[C@@H]12	80 µM
C=C(C)[C@@H]1CC[C@]2(CO)CC[C@]3(C)[C@H](CC[C@@H]4[C@@]5(C)CCC(=O)C(C)(C)[C@@H]5CC[C@]43C)[C@@H]12	> 500 µM
C=C(C=O)[C@@H]1CC[C@]2(C(=O)O)CC[C@]3(C)[C@H](CC[C@@H]4[C@@]5(C)CC[C@@H](O)[C@](C)(CO)[C@@H]5CC[C@]43C)[C@@H]12	> 500 µM

Query: Entry CC(=O)O[C@@]12CO[C@@H]1C[C@H](O)[C@@]1(C)C(=O)[C@H](O)C3=C(C)[C@@H](OC(=O)[C@H](O)[C@@H](NC(=O)OC(C)(C)C)c4ccccc4)C[C@@](O)([C@@H](OC(=O)c4ccccc4)[C@H]21)C3(C)C [DOCETAXEL ANHYDROUS] : reported CC50 = ?
Response: 1.6 µM

Query: Entry C=C(C)[C@@H]1CC[C@]2(C(=O)O)CC[C@]3(C)[C@H](CC[C@@H]4[C@@]5(C)CC[C@@H](O)[C@](C)(CO)[C@@H]5CC[C@]43C)[C@@H]12 : reported CC50 = ?
Response: 95.8 to 500 µM

Query: Entry CC1(C)CC[C@]2(C(=O)O)CC[C@]3(C)C(=CC[C@@H]4[C@@]5(C)CC[C@H](O)C(C)(C)[C@@H]5CC[C@]43C)[C@@H]2C1 : reported CC50 = ?
Response: > 500 µM

Query: Entry C=C(C)[C@@H]1CC[C@]2(C)CC[C@]3(C)[C@H](CC[C@@H]4[C@@]5(C)CCC(=O)C(C)(C)[C@@H]5CC[C@]43C)[C@@H]12 : reported CC50 = ?
Response: > 500 µM

Query: Entry C=C(C)[C@@H]1CC[C@]2(C(=O)O)CC[C@]3(C)[C@H](CC[C@@H]4[C@@]5(C)CC[C@H]6OC(C)(C)OC[C@]6(C)[C@@H]5CC[C@]43C)[C@@H]12 : reported CC50 = ?
Response: 420 µM

Query: Entry C=C(C)[C@@H]1CC[C@]2(C(=O)O)CC[C@]3(C)[C@H](CC[C@@H]4[C@@]5(C)CC[C@@H](O)C(C)(C)[C@@H]5CC[C@]43C)[C@@H]12 [EPIBETULINIC ACID] : reported CC50 = ?
Response: > 500 µM

Query: Entry C=C(C)[C@@H]1CC[C@]2(CO)CC[C@]3(C)[C@H](CC[C@@H]4[C@@]5(C)CC[C@H](O)C(C)(C)[C@@H]5CC[C@]43C)[C@@H]12 : reported CC50 = ?
Response: > 500 µM
